System: CCRF-CEM
Assay: NCI tumour cell line growth inhibition, 48 h
The source made the active and inactive calls. Rule as the data show it: active = GI50 up to about 1.1 µM and inactive = higher.
Valid outcomes are listed here; reply with one: y for active, n for inactive

Illustrative cases are given below, each with its answer.
CC(=O)O[C@H]1CC[C@@]2(C)[C@@H](CC[C@@H]3[C@@H]2CC(=O)[C@@]2(C)[C@H]3C[C@@H]3CC(C)=CC(=O)[C@@H]32)C1 | n
CCCCCCCCCCCCCCCCCCNc1nc(=O)n(C2CC(O)C(COP(=O)(O)O)O2)cc1F (stereo unspecified) | n
CCOC(=O)Nc1ccc(S(=O)(=O)Nc2ccc(Br)cc2)cc1 | n

Hi, do you know how c1cncc(C(Nc2cccc3cccnc23)Nc2cccc3cccnc23)c1 came out in this test?
n

# lookup: test call for Oc1nc2c(c(-c3ccc(F)cc3)n1)COC/C2=C\c1ccc(F)cc1
n

Recorded test call requested for C=Cc1cc(OC)c2c(c1)c(=O)oc1c2cc(OC)c2c(O)ccc(C3OC(C)C(O)C(C)(O)C3O)c21 (stereo unspecified)
y

Ref: ChEMBL document CHEMBL1201862
